Give measured %Inh for each item. Keep answers brief.
- Tested on: ROS1
- Measurement context: concentration: 1 μM, replicates: in singlicate; n = 1;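 also: KINOMEscan kinase panel screen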
Answer format: numeric, % implied, no suffix.

Lab book: %Inh of COC(=O)C(NC(=O)NC1CCN(c2ccnc(Nc3ccc(F)cc3)n2)C1)c1ccccc1 (stereo not shown) noted as 12

Lab book: %Inh of CC(C)c1ccc(O)cc1Nc1ccnc2ccc(C(F)(F)F)cc12 noted as 0

Lab book: %Inh of Cc1ccc(NC(=O)Nc2ccc(Cl)c(C(F)(F)F)c2)cc1-c1ccc(C(=O)Nc2ccncc2)cc1 noted as 14

Lab book: %Inh of COc1cccc(NC(=O)Nc2ccc(C)c(-c3ccc(C(=O)Nc4ccncc4)cc3)c2)c1 noted as 0

---

- System: CSNK1A1
- Measurement context: concentration: 1 μM, replicates: in singlicate; n = 1
Param label: returns Yes when %Inh < 3%, returns No otherwise, including exact equality.

Does the reported %Inh of the following molecule sit strictly below 3%? Cc1ccc(NC(=O)Nc2ccccc2F)cc1-c1ccc(C(=O)Nc2ccncc2)cc1
Yes

Does the reported %Inh of the following molecule sit strictly below 3%? O=C(Nc1n[nH]c2nc(-c3ccco3)c(Br)cc12)C1CCN(Cc2ccccc2)C1.O=C(O)[C@H](O)[C@@H](O)C(=O)O (centres unmarked)
No

Does the reported %Inh of the following molecule sit strictly below 3%? COc1ccc(Nc2nccc(N3CCC(NC(=O)C(C)c4ccc(Cl)cc4)C3)n2)cc1 (centres unmarked)
No

Does the reported %Inh of the following molecule sit strictly below 3%? Cl.Cl.Cl.N#Cc1ccc(CCNc2nccc(-c3cccc(CN4CCNCC4)c3)n2)cc1
Yes

Does the reported %Inh of the following molecule sit strictly below 3%? Cc1ccc(NC(=O)Nc2ccccc2)cc1-c1ccc(C(=O)Nc2ccncc2)cc1
Yes

Does the reported %Inh of the following molecule sit strictly below 3%? Cc1ccc(NC(=O)c2ccc(Cl)cc2)cc1-c1ccc(C(=O)Nc2ccncc2)cc1
Yes

Does the reported %Inh of the following molecule sit strictly below 3%? CSc1ccc(-c2nc3n(c2-c2ccncc2)CCC3)cc1
No

---

- Test system: GSK3B
- Measurement context: concentration: 1 μM, replicates: in singlicate; n = 1
%Inh below 10% gives Not met; %Inh at or above it gives Met.

// inclusive: %Inh at least 10%? input: COc1ccc(CSc2nnc(-c3ccc4nccn4c3)o2)cc1C(F)(F)F
Met

// inclusive: %Inh at least 10%? input: CCCCc1nn2ncccc2c1-c1ccnc(NC2CC2)n1
Not met

// inclusive: %Inh at least 10%? input: COc1cccc(CNC(=O)NC2CCN(c3ccnc(Nc4ccc(F)cc4)n3)C2)c1 (centres unmarked)
Met

// inclusive: %Inh at least 10%? input: CSc1ccc(-c2nc3n(c2-c2ccncc2)CCC3)cc1
Met

// inclusive: %Inh at least 10%? input: CNC(=O)c1ccc(C)c(-n2c(C)cc(OCc3ccc(F)cc3F)c(Br)c2=O)c1
Not met

// inclusive: %Inh at least 10%? input: Nc1ncnc2occ(-c3ccc4c(c3)CCN4C(=O)Cc3cc(F)ccc3F)c12
Not met

// inclusive: %Inh at least 10%? input: Cc1c(Cn2c3ccccc3n3c(=O)cc(N4CCOCC4)nc23)cccc1C(F)(F)F
Met

// inclusive: %Inh at least 10%? input: COc1ccc(Nc2nccc(N3CCC(NC(=O)c4cc5ccccc5s4)C3)n2)cc1 (centres unmarked)
Met
